For each entry below, report its pKd value.
biological target: human PD-1 (human, UniProt Q15116); assay: BLI
Sequence (Q15116 25-167): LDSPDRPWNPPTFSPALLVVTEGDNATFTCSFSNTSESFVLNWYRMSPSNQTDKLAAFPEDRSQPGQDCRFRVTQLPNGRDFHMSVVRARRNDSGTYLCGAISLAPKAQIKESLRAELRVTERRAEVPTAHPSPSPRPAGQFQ
One number for each entry, as −log10 of the molar value.

1. Antibody 27 PD-1 arm (antibody, V domains shown) VH: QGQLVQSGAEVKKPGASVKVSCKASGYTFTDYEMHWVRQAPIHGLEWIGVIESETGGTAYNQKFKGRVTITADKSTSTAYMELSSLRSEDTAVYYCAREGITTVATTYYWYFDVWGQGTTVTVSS VL: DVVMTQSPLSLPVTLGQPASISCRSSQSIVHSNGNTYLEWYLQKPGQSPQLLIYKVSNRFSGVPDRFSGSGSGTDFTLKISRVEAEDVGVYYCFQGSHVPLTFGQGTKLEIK : 9.06
2. Antibody 24 PD-1 arm (antibody, V domains shown) VH: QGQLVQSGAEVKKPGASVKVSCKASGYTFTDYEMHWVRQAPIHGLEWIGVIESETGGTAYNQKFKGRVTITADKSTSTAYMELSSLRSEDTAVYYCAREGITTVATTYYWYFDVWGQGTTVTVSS VL: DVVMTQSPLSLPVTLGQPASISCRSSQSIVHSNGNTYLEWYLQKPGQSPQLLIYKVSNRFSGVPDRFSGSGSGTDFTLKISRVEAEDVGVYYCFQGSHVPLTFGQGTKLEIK : 8.92

Would you kindly look at the next entry?
Inquiry: Looking for the measured pKd of JS001 (TAB001, toripalimab) (antibody, V domains shown) VH: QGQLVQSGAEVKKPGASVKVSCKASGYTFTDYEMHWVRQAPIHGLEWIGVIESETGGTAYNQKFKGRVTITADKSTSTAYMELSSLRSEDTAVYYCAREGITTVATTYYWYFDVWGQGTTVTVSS VL: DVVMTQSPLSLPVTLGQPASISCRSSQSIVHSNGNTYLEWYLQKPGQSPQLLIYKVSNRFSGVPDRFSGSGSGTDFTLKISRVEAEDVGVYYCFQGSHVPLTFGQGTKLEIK , can you help?
Reply text: 9.23
